- assayProtocol: yeast aging ROS inhibitors as calorie-restriction mimetics – HTS, primary screen (AID 2690);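 also: yeast aged for seven days with compound at 30 °C before DHE staining; 100% = average MFI of all compound-treated wells on the plate with controls excluded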
- conditionDetails: S. cerevisiae aged cells, superoxide DHE fluorescence; at 10 µM; hits give low values
Hit rate of the full screen: of about 330,000 compounds, about 590 (0.18%) were called active. Shown is part of a subset that was picked to be rich in actives.
Record form. Attribute: superoxide response (% of plate mean). Fill in for each entry.

Some compounds with known superoxide response (% of plate mean) results, for comparison:
[[record]]
compound = "CCOC(=O)CNc1nc(Cl)nc(Nc2ccccc2)n1"
result = "114% (inactive)"

[[record]]
compound = "COc1cc(-c2c(-c3ccc4c(c3)OCO4)noc2C)ccc1F"
result = "94.1% (inactive)"

[[record]]
compound = "CC(=O)C[C@H](O)CC(=O)[C@@H]1OC(=O)[C@@H](C)C/C=C\\Cc2ccccc21"
result = "89.8% (inactive)"

[[record]]
compound = "Clc1nc(NC2CCCC2)nc(N2CCOCC2)n1"
result = "104% (inactive)"

[[record]]
compound = "Cc1nn(CC(=O)Nc2ccc(F)cc2)c(=O)c2ccccc12"
result = "98.5% (inactive)"

[[record]]
compound = "COc1ccc(C2=NN(c3nc4ccccc4s3)C(=O)C2)cc1"
result = "51% (active)"


Batch of 3 compounds: report superoxide response (% of plate mean) for each.
1. CC(C)(C)NC(=O)COc1ccc(CNc2ccc3[nH]c(=O)[nH]c3c2)cc1
2. CCCCc1cc(=O)oc2c(C)c(OCC(=O)N3CCC(C(N)=O)CC3)ccc12
3. COC(=O)c1ccc(OCC(=O)NC(C)(C)C)cc1

["60.8% (active)", "81.2% (inactive)", "102% (inactive)"]

* * *

Record form. Attribute: superoxide response (% of plate mean). Fill in for each entry.
- assayProtocol: yeast aging ROS inhibitors as calorie-restriction mimetics – HTS, primary screen (AID 2690)
- conditionDetails: S. cerevisiae aged cells, superoxide DHE fluorescence; at 10 µM; hits give low values
The whole screen tested about 330,000 compounds, of which about 590 (0.18%) were called active. This is one part of a sample in which actives are shown more often than they occur.
Answers are plain numbers, in %.

Some compounds with known superoxide response (% of plate mean) results, for comparison:
[[record]]
compound = "O=C(Nc1ccc(Br)cn1)c1ccc([N+](=O)[O-])cc1Cl"
numericreadout = 64.7

[[record]]
compound = "CCOc1c(N2CCCCC2)c(=O)c1=O"
numericreadout = 105

[[record]]
compound = "CCOc1ccc(N2CC(C(=O)N/N=C/c3sccc3C)CC2=O)cc1 (stereo unspecified)"
numericreadout = 100

[[record]]
compound = "O=C(Nc1ccc(Br)cn1)c1ccc([N+](=O)[O-])o1"
numericreadout = 118

[[record]]
compound = "COc1cc(CO)ccc1OCC(=O)Nc1cccc2ccccc12"
numericreadout = 99.9


Proceed to the following item.
Sample COC(=O)c1ccc(NC(=S)Nc2cccc(C)n2)cc1 ; superoxide response (% of plate mean) observed: 105

* * *

- assayProtocol: yeast aging ROS inhibitors as calorie-restriction mimetics – HTS, primary screen (AID 2690)
- conditionDetails: S. cerevisiae aged cells, superoxide DHE fluorescence; at 10 µM
Screen size: about 330,000 compounds; about 590 (0.18%) were called active.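 The calls were made as follows: active = superoxide response under a set limit, about three screen SD below normal (cut at about 65% in these data); inactive = the rest.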 The sample holds actives, similar compounds and a random draw of the others, so the mix is not that of the screen.
Respond only with the outcome that fits, drawn from class 1 (active), class 0 (inactive)

Consider the worked cases shown below.
[[record]]
chemicalstring = "COc1cc(C(=O)NCc2ccc(-n3cccc3)cc2)cc(OC)c1OC"
classassignment = "class 0"

[[record]]
chemicalstring = "CCc1ccccc1NC(=O)CN(C)C(=O)c1cc(C2CC2)nn1-c1ccccc1"
classassignment = "class 0"


Consider the record given below.
# lookup: test call for O=C(Nc1ccncc1)c1ccc([N+](=O)[O-])cc1Cl
class 0

* * *

- assayProtocol: yeast aging ROS inhibitors as calorie-restriction mimetics – HTS, primary screen (AID 2690)
- conditionDetails: S. cerevisiae aged cells, superoxide DHE fluorescence; at 10 µM; hits give low values
In all, about 330,000 compounds went through this assay and about 590 (0.18%) were called active. The full list was thinned out, with actives kept by preference.
Record form. Attribute: superoxide response (% of plate mean). Fill in for each entry.

Some compounds with known superoxide response (% of plate mean) results, for comparison:
[[record]]
chemicalstring = "NC(=O)CSc1c[nH]c2ccccc12"
result = "97.2% (inactive)"

[[record]]
chemicalstring = "Cc1ccc(S(=O)(=O)NCCC(=O)NC2CCN(Cc3ccccc3)CC2)cc1"
result = "93% (inactive)"

[[record]]
chemicalstring = "Cc1cc2ncn(CCCCOc3ccccc3)c2cc1C"
result = "80.1% (inactive)"


Batch of 3 compounds: report superoxide response (% of plate mean) for each.
1. O=C(CCc1ccccc1)Nc1ccc(NC(=O)C2CCCCC2)nc1
2. CCn1c2ccccc2c2cc(CC(N)=O)ccc21
3. NC(=O)Cc1ccc2c(c1)[nH]c1ccccc12

1: 91.3% (inactive); 2: 105% (inactive); 3: 40.8% (active)

* * *

- assayProtocol: yeast aging ROS inhibitors as calorie-restriction mimetics – HTS, primary screen (AID 2690);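 also: yeast aged for seven days with compound at 30 °C before DHE staining; 100% = average MFI of all compound-treated wells on the plate with controls excluded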
- conditionDetails: S. cerevisiae aged cells, superoxide DHE fluorescence; at 10 µM; hits give low values
Screen size: about 330,000 compounds; about 590 (0.18%) were called active. Many of the other results were omitted from the sample, so actives are more common in it than they were.
propertyLabel: superoxide response (% of plate mean) (%)
One number for each entry, in %.

Some compounds with known superoxide response (% of plate mean) results, for comparison:
[[record]]
compound = "COc1ccc(NC(=O)c2cc([N+](=O)[O-])ccc2NC(=O)CNC2CCCCC2C)c(OC)c1 (stereo not given)"
propertylabel = "superoxide response (% of plate mean)"
numericreadout = 111

[[record]]
compound = "CCCC(C(=O)NCc1ccco1)N(C(=O)CNS(=O)(=O)c1ccccc1)C1CCCC1 (stereo not given)"
propertylabel = "superoxide response (% of plate mean)"
numericreadout = 101

[[record]]
compound = "Cc1cc(F)ccc1S(=O)(=O)Nc1ncnc2scc(-c3ccc(F)cc3)c12"
propertylabel = "superoxide response (% of plate mean)"
numericreadout = 103

[[record]]
compound = "Cc1nc([N+](=O)[O-])cn1CC(=O)Nc1ccc(Cl)cc1"
propertylabel = "superoxide response (% of plate mean)"
numericreadout = 104

[[record]]
compound = "Cc1c(NC(=O)c2cc(-c3ccc(Br)cc3)on2)c(=O)n(-c2ccccc2)n1C"
propertylabel = "superoxide response (% of plate mean)"
numericreadout = 98.6


Batch of 5 compounds: report superoxide response (% of plate mean) for each.
1. Cc1ccccc1N1CCN(C2CCCN(C(=O)c3cn4c(C)cccc4n3)C2)CC1 (stereo not given)
2. O=S(=O)(NCCCCCCNS(=O)(=O)c1c(F)cccc1F)c1ccc2c(c1)OCCO2
3. C#CCO[C@@H]1C[C@H](n2cnc3c(=O)[nH]c(NC(=O)C(C)C)nc32)O[C@@H]1CO
4. Cc1c(NC(=O)c2coc(=O)c(Br)c2)c(=O)n(-c2ccccc2)n1C
5. Cc1cc2oc(C(=O)Nc3c(C)n(C)n(-c4ccccc4)c3=O)c(C)c2cc1Cl

1. 98.9
2. 104
3. 101
4. 96.5
5. 43

* * *

- assayProtocol: yeast aging ROS inhibitors as calorie-restriction mimetics – HTS, primary screen (AID 2690);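 also: yeast aged for seven days with compound at 30 °C before DHE staining; 100% = average MFI of all compound-treated wells on the plate with controls excluded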
- conditionDetails: S. cerevisiae aged cells, superoxide DHE fluorescence; at 10 µM; hits give low values
About 590 (0.18%) of roughly 330,000 compounds were called active. The sample as a whole holds a higher share of actives than the screen did.
Record form. Attribute: superoxide response (% of plate mean). Fill in for each entry.
Give bare numbers, in %.

Some compounds with known superoxide response (% of plate mean) results, for comparison:
[[record]]
chemicalstring = "Cc1cc(NS(=O)(=O)c2ccc(NC(=O)c3cccc(OC(F)F)c3)cc2)nc(C)n1"
unitinfo = "%"
numericreadout = 103

[[record]]
chemicalstring = "Cc1cc(C(F)F)n2nc(C(=O)Nc3ccc(S(=O)(=O)NC45CC6CC(CC(C6)C4)C5)cc3)nc2n1"
unitinfo = "%"
numericreadout = 62.8

[[record]]
chemicalstring = "CCOc1ccccc1NC(=O)C12CC3CC(C1)CC(c1ccc(C)cc1)(C3)C2"
unitinfo = "%"
numericreadout = 95.5

[[record]]
chemicalstring = "CCn1nccc1C(=O)Nc1ccc(S(=O)(=O)NC23CC4CC(CC(C4)C2)C3)cc1"
unitinfo = "%"
numericreadout = 114


Sample Cc1ccc(C23CC4CC(CC(C(=O)NCC(=O)O)(C4)C2)C3)cc1 ; superoxide response (% of plate mean) observed: 62.1

* * *

Record form. Attribute: superoxide response (% of plate mean). Fill in for each entry.
- assayProtocol: yeast aging ROS inhibitors as calorie-restriction mimetics – HTS, primary screen (AID 2690);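 also: yeast aged for seven days with compound at 30 °C before DHE staining; 100% = average MFI of all compound-treated wells on the plate with controls excluded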
- conditionDetails: S. cerevisiae aged cells, superoxide DHE fluorescence; at 10 µM; hits give low values
About 590 (0.18%) of roughly 330,000 compounds were called active. What follows is part of a selection rich in actives, with near analogues and random picks from the rest.
Numbers only, in %.

[[record]]
compound = "CCc1ccccc1N(CC(=O)NCC1CCCO1)C(=O)CCC(=O)Nc1nccs1 (centres undefined)"
propertylabel = "superoxide response (% of plate mean)"
numericreadout = 88

[[record]]
compound = "COc1ccc(OC)c(NC(=O)Cc2cccs2)c1"
propertylabel = "superoxide response (% of plate mean)"
numericreadout = 102

[[record]]
compound = "O=c1c2cc([N+](=O)[O-])ccc2nc2n1CCC2"
propertylabel = "superoxide response (% of plate mean)"
numericreadout = 108

[[record]]
compound = "COC(=O)c1ccc(NC(=O)CSc2nncc3ccc(OC)c(OC)c23)cc1"
propertylabel = "superoxide response (% of plate mean)"
numericreadout = 119


Batch of 2 compounds: report superoxide response (% of plate mean) for each.
1. Cc1ccc(-c2nc(CS(=O)CC(=O)NC3CCCC3)c(C)o2)cc1 (centres undefined)
2. O=C(COC(=O)CCCNC(=O)c1ccc(Cl)cc1)Nc1cc(Cl)ccc1Cl

1. 108
2. 98.1

Batch of 6 compounds: report superoxide response (% of plate mean) for each.
1. Cc1ccc2c(cnn2C(=O)CCC(=O)NC2CCCC2)c1
2. CN=C(Nc1cccc(S(=O)(=O)N2CCOCC2)c1)c1ccccc1
3. COc1ccc(C2=Nc3cc(C)ccc3OC2)cc1
4. CC(=O)NC1=NN(C(C)=O)C(C)(c2ccc(Cl)s2)S1 (centres undefined)
5. CNC(=O)c1cccc2nc3ccccc3nc12
6. CCCCNC(=O)C1CCCN(S(=O)(=O)c2ccc(S(=O)(=O)NCC(C)C)cc2)C1 (centres undefined)

[96.7, 96.6, 99.1, 102, 47, 102]

Batch of 7 compounds: report superoxide response (% of plate mean) for each.
1. CC(=O)c1c(C)c[nH]c1C
2. COc1ccc(-c2cc(C(=O)N(C)Cc3ccc(OC)c(OC)c3OC)c3ccccc3n2)cc1OC
3. COc1cc(N2C(=O)c3ccccc3C2=O)c(Cl)cc1C(=O)OCC(=O)N1CCOCC1
4. C=CCNC(=S)/N=c1/ccccn1Cc1ccccc1
5. Clc1ccc2nc(CSc3ccccc3)cn2c1
6. CCCC(NC(=O)c1ccco1)c1nc2ccccc2[nH]1 (centres undefined)
7. Cc1ccc(-c2nn(C(C)(C)C)c3ncnc(N)c23)cc1

[90.3, 96.5, 106, 102, 99.1, 103, 55.4]

Batch of 5 compounds: report superoxide response (% of plate mean) for each.
1. COc1ccc(-c2nonc2NC(=O)c2oc3ccc(F)cc3c2C)cc1OC
2. O=C(CSc1nc2[nH]c(=O)[nH]c(=O)c2s1)Nc1cccc(F)c1
3. OC(c1nc2ccccc2[nH]1)C(O)C(O)C(O)c1nc2ccccc2[nH]1 (centres undefined)
4. CN(C)C1=NC[C@H](Cc2ccccc2)N1CCc1ccc(F)cc1
5. Cc1cc2c(C)nc(N/N=C/c3ccccc3)nc2o1

[80.1, 94.1, 59.9, 98.7, 97.9]
